// reported EC50 per item
- Assayed system: human FGFR1c + KLB receptor complex on HEK293 iLite FGF21 reporter cells (human, UniProt P11362 22-822; Q86Z14 1-1044)
- Sequence (P11362 22-822, chain 1 of 2): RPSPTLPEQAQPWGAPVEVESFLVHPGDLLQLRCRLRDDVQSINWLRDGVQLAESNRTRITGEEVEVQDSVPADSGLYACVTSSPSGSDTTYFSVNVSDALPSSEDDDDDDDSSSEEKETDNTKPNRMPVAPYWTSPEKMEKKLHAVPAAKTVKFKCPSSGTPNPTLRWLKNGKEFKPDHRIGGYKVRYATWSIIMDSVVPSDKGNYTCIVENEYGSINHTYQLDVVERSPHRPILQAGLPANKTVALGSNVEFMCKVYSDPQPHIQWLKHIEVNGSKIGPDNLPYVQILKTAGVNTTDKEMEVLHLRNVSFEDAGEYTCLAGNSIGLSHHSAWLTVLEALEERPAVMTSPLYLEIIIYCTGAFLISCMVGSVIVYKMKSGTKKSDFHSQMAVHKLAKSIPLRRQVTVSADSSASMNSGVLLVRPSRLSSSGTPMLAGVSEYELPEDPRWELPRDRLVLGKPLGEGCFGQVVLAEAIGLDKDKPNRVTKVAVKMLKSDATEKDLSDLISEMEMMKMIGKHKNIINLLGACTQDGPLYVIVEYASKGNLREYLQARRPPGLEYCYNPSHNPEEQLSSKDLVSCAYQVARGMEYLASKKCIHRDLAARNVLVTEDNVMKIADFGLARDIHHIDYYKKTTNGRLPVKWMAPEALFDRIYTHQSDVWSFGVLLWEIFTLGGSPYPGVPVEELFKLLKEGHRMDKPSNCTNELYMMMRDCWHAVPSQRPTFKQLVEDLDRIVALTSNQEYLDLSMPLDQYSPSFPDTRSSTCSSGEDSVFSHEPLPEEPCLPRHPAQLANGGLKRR
- Sequence (Q86Z14 whole entry, chain 2 of 2): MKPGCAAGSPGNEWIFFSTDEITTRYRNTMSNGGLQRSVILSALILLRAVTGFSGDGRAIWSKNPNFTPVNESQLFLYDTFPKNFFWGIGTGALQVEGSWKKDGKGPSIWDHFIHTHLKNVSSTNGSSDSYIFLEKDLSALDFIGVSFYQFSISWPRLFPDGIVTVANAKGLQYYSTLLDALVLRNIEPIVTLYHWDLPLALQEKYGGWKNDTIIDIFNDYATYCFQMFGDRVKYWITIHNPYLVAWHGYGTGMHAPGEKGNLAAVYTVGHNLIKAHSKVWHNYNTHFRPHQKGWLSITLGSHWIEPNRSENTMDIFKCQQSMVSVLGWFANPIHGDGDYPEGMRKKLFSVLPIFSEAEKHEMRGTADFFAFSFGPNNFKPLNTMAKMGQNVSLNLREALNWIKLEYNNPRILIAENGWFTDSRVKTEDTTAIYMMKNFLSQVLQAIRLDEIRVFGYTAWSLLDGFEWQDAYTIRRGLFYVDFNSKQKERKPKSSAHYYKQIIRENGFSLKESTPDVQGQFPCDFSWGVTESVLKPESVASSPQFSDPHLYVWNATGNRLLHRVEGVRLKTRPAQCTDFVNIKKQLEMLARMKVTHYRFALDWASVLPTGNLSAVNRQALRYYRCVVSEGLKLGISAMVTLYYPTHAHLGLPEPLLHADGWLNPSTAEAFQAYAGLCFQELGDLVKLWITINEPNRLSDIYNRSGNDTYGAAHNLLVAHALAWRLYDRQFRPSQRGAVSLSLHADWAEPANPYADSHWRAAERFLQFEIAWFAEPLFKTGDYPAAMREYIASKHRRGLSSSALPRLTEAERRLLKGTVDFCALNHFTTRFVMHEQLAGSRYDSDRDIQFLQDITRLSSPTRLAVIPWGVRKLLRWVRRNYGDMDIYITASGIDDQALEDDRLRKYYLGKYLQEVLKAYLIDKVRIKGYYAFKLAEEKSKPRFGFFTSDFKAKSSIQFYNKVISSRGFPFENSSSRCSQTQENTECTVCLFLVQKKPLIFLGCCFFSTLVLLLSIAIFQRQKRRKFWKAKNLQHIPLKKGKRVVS
- Method description: cell-based or functional assay
Measured property: EC50

INSERT INTO assay_data (binder, readout_value) VALUES
  ('Ab0204 (antibody, IgG4, V domains shown, IgG4 PE) VH: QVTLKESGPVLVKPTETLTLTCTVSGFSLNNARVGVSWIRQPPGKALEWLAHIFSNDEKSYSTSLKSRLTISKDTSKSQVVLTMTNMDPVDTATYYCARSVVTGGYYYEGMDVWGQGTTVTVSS VL: SYVLTQPPSVSVAPGQTARITCGGNNIGSESVHWYQQKPGQAPVLVVYDDSDRPSGIPERFSGSNSGNTATLTISRVEAGDEADYYCQVWTGNSDHVVFGGGTKLTVLG', '0.04 nM'),
  ('Ab0316 (antibody, IgG4, V domains shown) VH: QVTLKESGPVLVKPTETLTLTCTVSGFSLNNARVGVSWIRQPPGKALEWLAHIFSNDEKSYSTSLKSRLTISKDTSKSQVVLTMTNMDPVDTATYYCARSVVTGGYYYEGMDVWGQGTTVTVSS VL: SYVLTQPPSVSVAPGQTARITCGGSNIGSESVHWYQQKPGQAPVLVVYYDSDRPSGIPERFSGSNSGNTATLTISRVEAGDEADYYCQVWTGESDHVVFGGGTKLTVLG', '0.45 nM');
